- system_name: HCV NS3 protease (full length NS34a) (Hepatitis C virus genotype 1b)
- Construct: The protease activity of the full length NS34a was measured using a FRET-based assay; made in house
- Sequence (P26663 1658-1711): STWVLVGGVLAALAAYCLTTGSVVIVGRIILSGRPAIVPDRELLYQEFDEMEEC
- Sequence (P26663 1027-1657): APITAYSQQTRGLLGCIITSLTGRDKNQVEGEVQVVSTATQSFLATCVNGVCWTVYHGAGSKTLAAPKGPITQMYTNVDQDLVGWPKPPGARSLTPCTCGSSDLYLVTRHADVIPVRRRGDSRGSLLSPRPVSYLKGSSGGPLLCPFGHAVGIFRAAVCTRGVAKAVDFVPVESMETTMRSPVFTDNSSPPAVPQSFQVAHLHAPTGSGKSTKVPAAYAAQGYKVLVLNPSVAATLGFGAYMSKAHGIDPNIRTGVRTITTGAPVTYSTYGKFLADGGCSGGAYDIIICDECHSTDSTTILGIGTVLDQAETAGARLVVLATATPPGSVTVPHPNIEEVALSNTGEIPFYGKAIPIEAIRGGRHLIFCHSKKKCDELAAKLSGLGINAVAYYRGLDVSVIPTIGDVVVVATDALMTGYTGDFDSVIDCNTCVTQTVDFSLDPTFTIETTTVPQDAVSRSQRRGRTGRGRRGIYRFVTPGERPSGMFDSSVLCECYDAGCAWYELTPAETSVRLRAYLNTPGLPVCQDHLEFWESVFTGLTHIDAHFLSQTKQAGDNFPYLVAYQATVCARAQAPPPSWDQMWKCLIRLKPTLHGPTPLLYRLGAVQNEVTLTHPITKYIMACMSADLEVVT
- assay_info: HCV NS3 protease assay (FRET, full length NS34a)
- Assay type: biochemical
- conditions: protease activity of full length NS34a, FRET peptide substrate; read-out: Activity IC50
Counter-ions that a name gives are not always drawn.
attribute_measured: IC50 (µM)
The reply should contain only the number, in µM.

### Prompt For HCV NS3 protease (full length NS34a) (Hepatitis C virus genotype 1b), provide IC50 of C#Cc1ccc(Oc2c(Cl)ccc([C@@H](CC)N[C@@H](C)CC(N)=O)c2F)cc1 [Example 230] please.
### Response 0.17

### Prompt For HCV NS3 protease (full length NS34a) (Hepatitis C virus genotype 1b), provide IC50 of C[C@H](CC(N)=O)N[C@H](c1ccc(Cl)c(Oc2ccccc2)c1F)C1CCOCC1 [Example 348] please.
### Response 10

### Prompt For HCV NS3 protease (full length NS34a) (Hepatitis C virus genotype 1b), provide IC50 of CCC(Nc1ccncc1)c1ccc(F)c(Oc2ccccc2)c1F (centres unmarked) [Example 113] please.
### Response 0.68

### Prompt For HCV NS3 protease (full length NS34a) (Hepatitis C virus genotype 1b), provide IC50 of CC[C@H](Nc1ccncc1)c1ccc(F)c(Oc2ccccc2)c1F [Example 144, hydrochloride] please.
### Response 0.4

### Prompt For HCV NS3 protease (full length NS34a) (Hepatitis C virus genotype 1b), provide IC50 of CC[C@@H](N[C@@H](C)CC(N)=O)c1ccc(Cl)c(Oc2ccc(C#N)c(OC)c2)c1F [Example 210] please.
### Response 0.16

### Prompt For HCV NS3 protease (full length NS34a) (Hepatitis C virus genotype 1b), provide IC50 of CC[C@@H](N)c1ccc(Cl)c(Oc2ccncc2)c1F [Example 169] please.
### Response 4.8

### Prompt For HCV NS3 protease (full length NS34a) (Hepatitis C virus genotype 1b), provide IC50 of CC[C@@H](N[C@@H](C)c1cc[nH]c1)c1ccc(Cl)c(Oc2ccccc2)c1F [Example 164] please.
### Response 0.27

### Prompt For HCV NS3 protease (full length NS34a) (Hepatitis C virus genotype 1b), provide IC50 of CC[C@@H](N[C@@H](C)CC(=O)NC)c1ccc(Cl)c(Oc2ccccc2)c1F [Example 131A] please.
### Response 1.2

### Prompt For HCV NS3 protease (full length NS34a) (Hepatitis C virus genotype 1b), provide IC50 of CC[C@@H](N)c1ccc(Cl)c(Oc2ccc(CNC(C)=O)cc2)c1F [Example 198] please.
### Response 1.6

### Prompt For HCV NS3 protease (full length NS34a) (Hepatitis C virus genotype 1b), provide IC50 of CC(N)c1ccc(F)c(Oc2ccccc2)c1F (centres unmarked) [Example 4] please.
### Response 7

### Prompt For HCV NS3 protease (full length NS34a) (Hepatitis C virus genotype 1b), provide IC50 of CCNCCNC(=O)C[C@H](C)N[C@H](CC)c1ccc(Cl)c(Oc2ccccc2)c1F [Example 316] please.
### Response 0.4

### Prompt For HCV NS3 protease (full length NS34a) (Hepatitis C virus genotype 1b), provide IC50 of CC[C@@H](N[C@H](C)CC(N)=O)c1ccc(Cl)c(Oc2ccc(N)c(C)c2)c1F [Example 128] please.
### Response 1.2

### Prompt For HCV NS3 protease (full length NS34a) (Hepatitis C virus genotype 1b), provide IC50 of CC[C@@H](N[C@@H](C)CC(=O)N1CCNCC1)c1ccc(Cl)c(Oc2ccccc2)c1F [Example 235] please.
### Response 0.43

### Prompt For HCV NS3 protease (full length NS34a) (Hepatitis C virus genotype 1b), provide IC50 of CC[C@@H](N[C@H](C)CC(=O)NCCN(C)C)c1ccc(Cl)c(Oc2ccccc2)c1F [Example 242] please.
### Response 3.9

### Prompt For HCV NS3 protease (full length NS34a) (Hepatitis C virus genotype 1b), provide IC50 of CC[C@@H](N[C@H](C)CC(N)=O)c1ccc(Cl)c(Oc2ccc(CC#N)cc2)c1F [Example 212] please.
### Response 0.82

### Prompt For HCV NS3 protease (full length NS34a) (Hepatitis C virus genotype 1b), provide IC50 of CCC(NC(C)CO)c1ccc(F)c(Oc2ccccc2)c1F (centres unmarked) [Example 32] please.
### Response 0.88

### Prompt For HCV NS3 protease (full length NS34a) (Hepatitis C virus genotype 1b), provide IC50 of CC[C@@H](N[C@@H](C)CC(N)=O)c1ccc(Cl)c(Oc2ccc(C(N)=O)nc2)c1F [Example 249] please.
### Response 0.38

### Prompt For HCV NS3 protease (full length NS34a) (Hepatitis C virus genotype 1b), provide IC50 of CS(=O)(=O)Nc1cccc(Oc2c(F)ccc(C(N)CC3CCNCC3)c2F)c1 (centres unmarked) [Example 108B] please.
### Response 1.9

### Prompt For HCV NS3 protease (full length NS34a) (Hepatitis C virus genotype 1b), provide IC50 of CC[C@H](N[C@@H](C)CC(N)=O)c1ccc(F)c(Oc2ccccc2)c1F [Example 70] please.
### Response 0.73

### Prompt For HCV NS3 protease (full length NS34a) (Hepatitis C virus genotype 1b), provide IC50 of CC[C@@H](N)c1ccc(Cl)c(Oc2cc[nH]c(=O)c2)c1F [Example 218, hydrochloride] please.
### Response 8.2

### Prompt For HCV NS3 protease (full length NS34a) (Hepatitis C virus genotype 1b), provide IC50 of N[C@H](c1ccc(Cl)c(Oc2ccccc2)c1F)C1CCOCC1 [Example 344] please.
### Response 1.5

### Prompt For HCV NS3 protease (full length NS34a) (Hepatitis C virus genotype 1b), provide IC50 of CC[C@@H](N)c1ccc(Cl)c(Oc2ccc(-c3nnc(C)o3)cc2)c1F [Example 181] please.
### Response 2.3

### Prompt For HCV NS3 protease (full length NS34a) (Hepatitis C virus genotype 1b), provide IC50 of CC[C@@H](N[C@H](C)c1cc[nH]c1)c1ccc(Cl)c(Oc2ccccc2)c1F [Example 163] please.
### Response 2.5

### Prompt For HCV NS3 protease (full length NS34a) (Hepatitis C virus genotype 1b), provide IC50 of CC[C@H](N[C@@H](C)c1c[nH]cn1)c1ccc(Cl)c(Oc2ccccc2)c1F [Example 129] please.
### Response 0.36

### Prompt For HCV NS3 protease (full length NS34a) (Hepatitis C virus genotype 1b), provide IC50 of CC[C@@H](N[C@@H](C)CC(N)=O)c1ccc(Cl)c(Oc2ccc(-c3cnco3)cc2)c1F [Example 219] please.
### Response 0.22

### Prompt For HCV NS3 protease (full length NS34a) (Hepatitis C virus genotype 1b), provide IC50 of CC[C@@H](N)c1ccc(Cl)c(Oc2ccc(C#N)cc2)c1F [Example 158] please.
### Response 0.42

### Prompt For HCV NS3 protease (full length NS34a) (Hepatitis C virus genotype 1b), provide IC50 of CCC[C@@H](N)c1ccc(Cl)c(Oc2ccccc2)c1F [Example 118] please.
### Response 1.7

### Prompt For HCV NS3 protease (full length NS34a) (Hepatitis C virus genotype 1b), provide IC50 of CCC(NC(C)c1c[nH]cn1)c1ccc(F)c(Oc2ccccc2)c1F (centres unmarked) [Example 67] please.
### Response 3.4

### Prompt For HCV NS3 protease (full length NS34a) (Hepatitis C virus genotype 1b), provide IC50 of CC[C@H](N)c1ccc(Cl)c(Oc2cccc(C(=O)N(C)Cc3cnn(Cc4ccccc4)c3)c2)c1F [Example 138] please.
### Response 0.63

### Prompt For HCV NS3 protease (full length NS34a) (Hepatitis C virus genotype 1b), provide IC50 of N[C@H](CCF)c1ccc(Cl)c(Oc2ccccc2)c1F [Example 357] please.
### Response 5.7

### Prompt For HCV NS3 protease (full length NS34a) (Hepatitis C virus genotype 1b), provide IC50 of CC[C@@H](N)c1ccc(Cl)c(Oc2ccc(CO)cc2)c1F [Example 183] please.
### Response 1.2

### Prompt For HCV NS3 protease (full length NS34a) (Hepatitis C virus genotype 1b), provide IC50 of C[C@H](N)c1ccc(Cl)c(Oc2ccccc2)c1F [Example 342] please.
### Response 2.7

### Prompt For HCV NS3 protease (full length NS34a) (Hepatitis C virus genotype 1b), provide IC50 of CC[C@@H](N)c1ccc(Cl)c(Oc2ccc3c(c2)C(C)(C)CN3)c1F [Example 270] please.
### Response 1.6

### Prompt For HCV NS3 protease (full length NS34a) (Hepatitis C virus genotype 1b), provide IC50 of CC[C@@H](N[C@@H](C)CC(N)=O)c1ccc(Cl)c(Oc2ccc([N+](=O)[O-])cc2)c1F [Example 201] please.
### Response 0.2

### Prompt For HCV NS3 protease (full length NS34a) (Hepatitis C virus genotype 1b), provide IC50 of CC[C@@H](N[C@@H](C)CC(N)=O)c1ccc(Cl)c(Oc2ccc3c(c2)OCC3)c1F [Example 233] please.
### Response 0.11

Provenance of the data: patent US20140288040A1
